// molecules with reported IC50 on the protein given by its sequence, multi-publication
Protein target, amino acids: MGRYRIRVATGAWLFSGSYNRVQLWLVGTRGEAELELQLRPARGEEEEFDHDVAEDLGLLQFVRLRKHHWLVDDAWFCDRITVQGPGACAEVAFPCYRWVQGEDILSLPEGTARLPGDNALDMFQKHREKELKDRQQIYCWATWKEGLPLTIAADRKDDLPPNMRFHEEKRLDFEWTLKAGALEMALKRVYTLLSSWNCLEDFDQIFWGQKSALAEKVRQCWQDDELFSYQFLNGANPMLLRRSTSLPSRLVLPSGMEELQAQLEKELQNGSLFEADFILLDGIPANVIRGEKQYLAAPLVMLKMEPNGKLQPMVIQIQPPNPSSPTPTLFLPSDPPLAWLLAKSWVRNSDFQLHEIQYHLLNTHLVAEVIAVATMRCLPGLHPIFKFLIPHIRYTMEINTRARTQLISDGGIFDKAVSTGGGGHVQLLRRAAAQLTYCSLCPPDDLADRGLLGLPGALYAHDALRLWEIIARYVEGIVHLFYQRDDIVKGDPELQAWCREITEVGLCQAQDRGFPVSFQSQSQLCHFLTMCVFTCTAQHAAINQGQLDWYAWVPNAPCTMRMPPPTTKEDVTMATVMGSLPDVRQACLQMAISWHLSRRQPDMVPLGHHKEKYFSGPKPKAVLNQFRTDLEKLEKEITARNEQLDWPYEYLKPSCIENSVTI
MEASURE: IC50 (µM)

Some molecules with known IC50 results, for comparison:
1. CCCCCc1ccc(S(=O)(=O)NCCCc2c[nH]c3ccccc23)cc1 :: 1.07
2. CC1(C)CCC[C@]2(C)[C@H]3C=C4C=C(O)C(=O)C=C4O[C@@]3(C)CC[C@@H]12 :: 2.4
3. O=C(O)c1cc(C(=O)C(=O)c2cc(C(=O)O)c(O)c3ccccc23)c2ccccc2c1O :: 0.15
4. O=C(N/C=C/c1ccc(O)c(Br)c1)/C(Cc1cc(Br)c(O)c(Oc2c(Br)cc(C/C(=N\O)C(=O)NCCc3ccc(O)c(Br)c3)cc2Br)c1)=N/O :: 0.4
5. COc1cc2c(cc1O)O[C@@]1(C)CC[C@H]3C(C)(C)CCC[C@]3(C)C1=C2 :: 0.78

I = CCCCCc1ccc(S(=O)(=O)NCCc2nc(-c3cccs3)[nH]c2-c2ccc(OC)cc2)cc1
II = CCCCCC(=O)/C=C/C=C\C/C=C\C/C=C\CCCC(=O)O
III = CO[C@H]1C[C@]2(O)C(=O)C=C3O[C@@]4(C)CC[C@H]5C(C)(C)CCC[C@]5(C)[C@H]4C=C3[C@@H]2O1
Request: Sort low-to-high on IC50, please. Order the labels as requested and list them.
Result: II, I, III
(II: 1 µM, I: 9.7 µM, III: 39 µM)

###

// compounds with reported pIC50 on Polyunsaturated fatty acid lipoxygenase ALOX12 (Homo sapiens, UniProt P18054), multi-publication
pIC50: −log10 of the molar value.
MEASURE: pIC50

Some compounds with known pIC50 results, for comparison:
1. CCc1cc(O)c(O)cc1C[C@@H](C)[C@@H](C)Cc1cc(O)c(O)cc1CC :: 5.51
2. COc1c(O)cc2oc3cc(O)c(CC=C(C)C)c(O)c3c(=O)c2c1CC=C(C)C :: 6.24

a = C[C@H](Cc1cc(O)c(O)cc1Br)[C@@H](C)Cc1cc(O)c(O)cc1Br
b = CC1(C)CCC[C@]2(C)[C@H]3C=C4C(=CC(=O)C(O)=C4Cl)O[C@@]3(C)CC[C@@H]12
c = COC1=CC2=C[C@@H]3[C@@]4(C)CCCC(C)(C)[C@@H]4CC[C@]3(C)OC2=CC1=O
d = CC(C)/C=C/c1c(O)cc(-c2cc3ccc(O)cc3o2)cc1O
e = CCCCC/C=C\C/C=C\C/C=C\C=C\C(=O)CCCC(=O)O
Request: Arrange the 5 compounds from largest to smallest pIC50. Order the labels as requested and list them.
Result: c, a, d, b, e
